Test system: isolated rat soleus muscles
procedure_summary: Measurement of force in an in vitro model: isolated rat soleus nerve-muscle preparation with tubocurarine
Type: cell-based
experimental_parameters: Rattus norvegicus, 40 min; 50 μM test compound, after 40 mins of compound exposure; 115 nM tubocurarine for 90 mins; read-out: Point increase (%) of initial force that was restored
Protocol: FIG. 2. […] Force traces from a representative muscle stimulated to contract in 1) control condition before addition of neuromuscular blocking agent, 2) the force response to stimulation after 90 minutes incubation with Tubocurarine. […] The traces presented in panel A (1, 2, 3), correspond to the dotted lines in panel B, respectively. Recovery of force is quantified as the percentage of the force prior to tubocurarine that is recovered by the compound. […]
measured_metric: activation at 50 µM
Kindly write the number and append the unit.

For the record C[C@H](Oc1ccc(Cl)cc1)C(=O)NOC(C)(C)C [Compound C-43] , what value of activation at 50 µM is listed for isolated rat soleus muscles?
20%

// next record CC(=O)N1CCC(ON(C(C)=O)C(=O)[C@H](C)Oc2ccc(Br)cc2)C1 (stereo partly drawn) [Compound C-12]
18%

// next record CONC(=O)[C@H](C)Oc1ccc(Br)cc1F [Compound C-64]
24%

// next record FCC[C@H](Oc1ccc(Br)cc1-c1ccon1)c1nn[nH]n1 [Compound E-1]
21%

// next record C[C@H](Oc1ccc(Cl)cc1)C(=O)NOC1CCC1 [Compound C-80]
47%

// next record C[C@H](Oc1ccc(Br)cc1)c1nn[nH]n1 [Compound E-6]
21%

// next record CC(=O)N1CCC(ONC(=O)[C@H](C)Oc2ccc(Br)cc2)C1 (stereo partly drawn) [Compound C-8]
45%

// next record C[C@H](Oc1ccc(Br)cc1F)c1nn[nH]n1 [Compound E-8]
34%

// next record C[C@H](Oc1ccc(Br)cc1F)C(=O)NOC1CCC1 [Compound C-31]
56%

###

What pEC50 was measured for each of the following?
target_or_system: CIC-1 ion channel (Rattus norvegicus, UniProt P35524)
Construct: CIC-1 channels in native tissue of rat skeletal muscle fibres
Sequence (P35524 1-994): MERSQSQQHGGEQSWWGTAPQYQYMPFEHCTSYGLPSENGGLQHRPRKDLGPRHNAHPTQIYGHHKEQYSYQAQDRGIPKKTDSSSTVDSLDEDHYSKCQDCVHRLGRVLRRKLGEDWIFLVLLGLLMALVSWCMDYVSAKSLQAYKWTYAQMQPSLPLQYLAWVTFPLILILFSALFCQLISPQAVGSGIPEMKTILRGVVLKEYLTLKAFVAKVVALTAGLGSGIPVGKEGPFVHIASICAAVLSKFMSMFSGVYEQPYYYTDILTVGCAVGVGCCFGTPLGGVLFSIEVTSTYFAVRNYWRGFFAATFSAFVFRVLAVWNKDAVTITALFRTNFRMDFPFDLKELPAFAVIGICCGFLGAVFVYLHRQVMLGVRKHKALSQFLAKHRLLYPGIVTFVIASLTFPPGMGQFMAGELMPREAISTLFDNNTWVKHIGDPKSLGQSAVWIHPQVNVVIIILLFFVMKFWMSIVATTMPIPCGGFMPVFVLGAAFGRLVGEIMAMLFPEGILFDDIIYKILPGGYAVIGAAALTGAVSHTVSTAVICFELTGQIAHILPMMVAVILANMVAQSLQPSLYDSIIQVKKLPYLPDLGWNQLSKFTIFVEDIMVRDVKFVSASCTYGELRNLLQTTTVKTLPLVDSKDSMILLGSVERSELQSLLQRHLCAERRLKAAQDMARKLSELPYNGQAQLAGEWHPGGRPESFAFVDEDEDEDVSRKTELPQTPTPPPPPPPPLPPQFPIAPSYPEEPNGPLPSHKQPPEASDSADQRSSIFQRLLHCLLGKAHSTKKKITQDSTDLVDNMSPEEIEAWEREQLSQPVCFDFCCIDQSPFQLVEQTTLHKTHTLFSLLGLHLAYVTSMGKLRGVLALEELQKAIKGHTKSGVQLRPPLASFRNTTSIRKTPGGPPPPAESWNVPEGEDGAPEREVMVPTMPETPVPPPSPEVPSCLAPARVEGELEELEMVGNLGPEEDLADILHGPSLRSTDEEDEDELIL
procedure_summary: Electrophysiological measurement (Gm, three micro-electrodes) of compound inhibition of CIC-1 in rat soleus muscle fibres
experimental_parameters: approx. 30° C., four increasing compound concentrations, read-out: EC50 (inhibition of CIC-1 ion channel, reduction of Gm)
Kindly note that pEC50 refers to -log10 of the concentration in mol/L and answer with the value alone.

For the record CC(=O)NCCON(C(C)=O)C(=O)[C@H](C)Oc1ccc(Cl)cc1 , what value of pEC50 is listed for CIC-1 ion channel (Rattus norvegicus, UniProt P35524)?
5.11

// next record CC(C)ONC(=O)[C@H](C)Oc1ccc(Cl)cc1
4.94

// next record C[C@H](Oc1ccc(Cl)cc1)C(=O)NOCC1CCC1
5.70

// next record COC(=O)CONC(=O)[C@H](C)Oc1ccc(Cl)cc1
5.51

// next record C[C@H](Oc1ccc(Br)cc1-c1ccon1)c1nnn[nH]1
5.22
